Molecular target: hERG (KCNH2) (Homo sapiens)
Sequence (Q12809 whole entry): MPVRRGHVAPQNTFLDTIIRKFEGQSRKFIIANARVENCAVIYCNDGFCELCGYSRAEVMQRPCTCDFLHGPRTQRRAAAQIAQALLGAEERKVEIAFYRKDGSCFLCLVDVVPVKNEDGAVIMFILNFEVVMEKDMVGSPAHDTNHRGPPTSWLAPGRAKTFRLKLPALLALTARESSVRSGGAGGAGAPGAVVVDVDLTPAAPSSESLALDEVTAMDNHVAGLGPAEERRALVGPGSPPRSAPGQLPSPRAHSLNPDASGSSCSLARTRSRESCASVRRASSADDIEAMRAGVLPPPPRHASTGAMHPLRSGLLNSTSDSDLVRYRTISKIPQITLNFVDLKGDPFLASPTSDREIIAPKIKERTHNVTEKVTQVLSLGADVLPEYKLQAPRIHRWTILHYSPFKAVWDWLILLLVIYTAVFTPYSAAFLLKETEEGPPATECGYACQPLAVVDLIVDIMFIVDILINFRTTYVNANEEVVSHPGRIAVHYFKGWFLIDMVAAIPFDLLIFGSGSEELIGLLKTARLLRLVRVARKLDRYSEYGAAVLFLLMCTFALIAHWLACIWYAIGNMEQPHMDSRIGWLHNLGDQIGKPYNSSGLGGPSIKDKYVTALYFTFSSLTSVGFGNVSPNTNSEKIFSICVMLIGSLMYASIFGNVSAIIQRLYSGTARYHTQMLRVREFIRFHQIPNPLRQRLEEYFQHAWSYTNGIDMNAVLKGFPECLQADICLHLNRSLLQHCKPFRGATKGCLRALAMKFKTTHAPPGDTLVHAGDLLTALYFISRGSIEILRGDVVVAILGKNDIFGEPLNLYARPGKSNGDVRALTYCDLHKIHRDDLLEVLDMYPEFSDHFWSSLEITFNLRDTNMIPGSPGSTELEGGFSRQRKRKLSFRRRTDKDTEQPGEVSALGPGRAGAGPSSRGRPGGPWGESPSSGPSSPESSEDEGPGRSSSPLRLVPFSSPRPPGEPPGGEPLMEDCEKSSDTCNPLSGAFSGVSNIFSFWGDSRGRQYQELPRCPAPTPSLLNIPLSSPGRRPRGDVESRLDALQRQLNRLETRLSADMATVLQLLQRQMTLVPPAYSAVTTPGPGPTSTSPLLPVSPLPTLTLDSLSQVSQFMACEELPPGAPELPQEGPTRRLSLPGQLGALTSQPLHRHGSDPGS
Experiment: Inhibition of human ERG channel expressed in CHO cells at 10 uM
Assay type: cell-based
Details: CHO cells expressing human ERG channel
Measured Metric: inhibition at 10 µM (%)
# output: bare number, implied unit %

Task: Which inhibition at 10 µM value is on record for COCCn1cc(C(=O)N2CCC3(CC2)COc2ccc(CN)cc23)c2cccc(F)c21 ?
Output: 16

---

Assay: Drug metabolism in human liver microsomes after 20 mins
Type: ADME
Conditions: read-out: Drug metabolism
Measured Metric: metabolised at 20 min (%)
Value expressed in %; do not type the unit.

Molecule Smiles	metabolised at 20 min, %
COCCn1cc(C(=O)N2CCC(c3cc(CN)ccc3F)CC2)c2cccc(F)c21	71

Kindly consider the entry below.
Task: Value lookup for metabolised at 20 min; key = COCCn1cc(C(=O)N2CCC3(CC2)COc2ccc(CN)cc23)c2cccc(F)c21
Output: 17

Where these numbers come from: ChEMBL document CHEMBL3217425
